# target.system: Sodium/potassium/calcium exchanger 4 (Homo sapiens, UniProt Q8NFF2)
# Sequence (Q8NFF2 whole entry): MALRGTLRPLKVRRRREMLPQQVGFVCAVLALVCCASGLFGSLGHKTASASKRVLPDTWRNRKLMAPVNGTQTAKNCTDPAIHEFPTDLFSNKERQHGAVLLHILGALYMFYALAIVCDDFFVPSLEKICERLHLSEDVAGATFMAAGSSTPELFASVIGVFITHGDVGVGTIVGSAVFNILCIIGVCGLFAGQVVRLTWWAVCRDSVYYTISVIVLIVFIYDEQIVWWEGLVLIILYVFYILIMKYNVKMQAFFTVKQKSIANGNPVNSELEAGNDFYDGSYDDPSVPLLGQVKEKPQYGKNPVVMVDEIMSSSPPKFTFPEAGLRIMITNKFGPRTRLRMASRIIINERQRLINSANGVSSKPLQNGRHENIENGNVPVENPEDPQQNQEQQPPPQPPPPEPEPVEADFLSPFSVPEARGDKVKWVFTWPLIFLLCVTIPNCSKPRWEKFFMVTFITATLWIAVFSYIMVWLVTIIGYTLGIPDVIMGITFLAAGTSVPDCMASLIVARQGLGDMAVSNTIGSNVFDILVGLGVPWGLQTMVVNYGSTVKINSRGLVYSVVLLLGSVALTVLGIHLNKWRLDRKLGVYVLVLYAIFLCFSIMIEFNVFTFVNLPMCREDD
# measurement.description: Substrate uptake by the Sodium/Potassium/Calcium Exchanger 4 (NCKX4, SLC24A4) as assessed by Screen Questtrade mark Fluo-8 NW calcium assay kit in HEK-293 JumpIN-SLC24A4 cells (PubChem AID: 1794814)
assay.endpoint: pEC50
Reminder that pEC50 means the negative base-10 logarithm of the concentration expressed in mol/L.

Asked: Return reported pEC50. Input molecule: [Cl-].[K+] [POTASSIUM CHLORIDE]
Given back: 0.76
